experiment: Cmax in rat at 10 mg/kg, po; assay type: ADME, organism-based; set-up: dose 10 mg/kg, route oral; settings: in vivo
endpoint: Cmax (ng/mL)

[I] CC1=C(c2cccc(O)c2)C(c2ccc(OC[C@H](C)N3CC[C@@H](C)C3)cc2)Oc2ccc(O)cc21 (some centres not stated)
[II] CC1=C(c2ccc(F)cc2)C(c2ccc(OC[C@H](C)N3CC[C@@H](C)C3)cc2)Oc2ccc(O)cc21 (some centres not stated)
Task: I'd appreciate it if you could identify which of I and II has the greater Cmax. # answer = label of selected item
Result: II
(II: 280 ng/mL, I: 140 ng/mL)

----------
assay: Oral bioavailability in rat at 10 mg/kg; format: ADME, organism-based; details: in vivo
endpoint: bioavailability (%)

[A] CC1=C(c2ccc(F)cc2)C(c2ccc(OC[C@H](C)N3CC[C@@H](C)C3)cc2)Oc2ccc(O)cc21 (some centres not stated)
[B] CC1=C(c2cccc(O)c2)C(c2ccc(OC[C@H](C)N3CC[C@@H](C)C3)cc2)Oc2ccc(O)cc21 (some centres not stated)
Task: I'm curious, which of these has a smaller bioavailability number: A or B ? # answer = label of selected item
Result: B
(B: 18%, A: 54%)

----------
experiment: Clearance in Sprague-Dawley rat at 1 mg/kg, iv; format: ADME, organism-based; details: in vivo
endpoint: clearance (mL/min/kg)

[1] Oc1ccc([C@H]2Sc3cc(O)ccc3O[C@H]2c2ccc(OCCN3CCCCC3)cc2)cc1
[2] Oc1ccc([C@H]2Sc3ccc(O)cc3O[C@H]2c2ccc(OCCN3CCCCC3)cc2)cc1
Task: I'd appreciate it if you could identify which of 1 and 2 has the greater clearance. # answer = label of selected item
Result: 2

----------
biological target: Estrogen receptor (Homo sapiens, UniProt P03372); assay: Induction of ERalpha degradation in human MCF7 cells in phenol red free RPMI medium containing 5% charcoal dextran-treated FBS incubated for 4 hrs by SP1 and anti-ER rabbit monocolnal antibody based in-cell Western assay
Sequence (P03372 whole entry): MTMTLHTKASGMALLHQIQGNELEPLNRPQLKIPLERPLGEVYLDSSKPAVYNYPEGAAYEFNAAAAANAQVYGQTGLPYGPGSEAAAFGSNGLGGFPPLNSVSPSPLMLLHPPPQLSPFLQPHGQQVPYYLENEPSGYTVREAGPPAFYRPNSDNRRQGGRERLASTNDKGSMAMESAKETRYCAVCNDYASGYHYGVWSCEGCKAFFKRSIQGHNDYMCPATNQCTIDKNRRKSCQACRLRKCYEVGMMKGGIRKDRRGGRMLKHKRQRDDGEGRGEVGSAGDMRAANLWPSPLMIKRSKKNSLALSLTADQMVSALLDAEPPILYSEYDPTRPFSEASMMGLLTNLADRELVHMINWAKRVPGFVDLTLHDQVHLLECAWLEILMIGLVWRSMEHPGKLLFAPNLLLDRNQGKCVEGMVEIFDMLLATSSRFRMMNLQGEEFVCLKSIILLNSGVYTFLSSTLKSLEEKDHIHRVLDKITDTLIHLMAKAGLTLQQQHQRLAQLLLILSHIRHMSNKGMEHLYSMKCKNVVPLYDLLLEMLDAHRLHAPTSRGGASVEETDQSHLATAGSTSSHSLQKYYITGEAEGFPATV
endpoint: IC50 (nM)

Some compounds with recorded IC50:
compound: CC1=C(c2cccc(O)c2)[C@@H](c2ccc(OC[C@H](C)N3CC[C@@H](C)C3)cc2)Oc2ccc(O)cc21
IC50, nM: 9.7
--
compound: CC1=C(c2cccc(O)c2)C(c2ccc(OC[C@H](C)N3CC[C@@H](C)C3)cc2)Oc2ccc(O)cc21 (stereo not given in full)
IC50, nM: 0.2

[I] CC1=C(c2cccc(O)c2)C(c2ccc(OC[C@H](C)N3CCC3)cc2)Oc2ccc(O)cc21 (stereo not given in full)
[II] CC1=C(c2cccc(O)c2)C(c2ccc(OCCN3CC[C@@H](C)C3)cc2)Oc2ccc(O)cc21 (stereo not given in full)
Task: I'm curious, which of these has a smaller IC50 number: I or II ? # answer = label of selected item
Result: II
(II: 0.4 nM, I: 0.9 nM)

[I] CC1=C(c2cccc(O)c2)C(c2ccc(OCCN3CCC(C)CC3)cc2)Oc2ccc(O)cc21 (stereo not given)
[II] CC1=C(c2ccc(S(C)(=O)=O)cc2)C(c2ccc(OC[C@H](C)N3CC[C@@H](C)C3)cc2)Oc2ccc(O)cc21 (stereo not given in full)
Task: I'm curious, which of these has a smaller IC50 number: I or II ? # answer = label of selected item
Result: I
(I: 0.2 nM, II: 5.7 nM)

[P] CC1=C(c2cccc(O)c2)C(c2ccc(OC[C@@H](C)N3CCCC3)cc2)Oc2ccc(O)cc21 (stereo not given in full)
[Q] CC1=C(c2cccc(O)c2)C(c2ccc(OCCN3CC[C@H](C)C3)cc2)Oc2ccc(O)cc21 (stereo not given in full)
[R] CC1=C(c2cccc(S(C)(=O)=O)c2)C(c2ccc(OC[C@H](C)N3CC[C@@H](C)C3)cc2)Oc2ccc(O)cc21 (stereo not given in full)
[S] CC1=C(c2ccc(O)cc2)C(c2ccc(OC[C@H](C)N3CC[C@@H](C)C3)cc2)Oc2ccc(O)cc21 (stereo not given in full)
Task: Parameters: sort_field (IC50), sort_dir (desc). Reply: labels, ordered per the request.
Result: R, P, Q, S
(R: 1.4 nM, P: 0.3 nM, Q: 0.2 nM, S: 0.1 nM)

Where these numbers come from: ChEMBL document CHEMBL4145684
